Origin of values: patent US20250296995A1

target: T1, recombinant Plasmodium falciparum circumsporozoite protein (CSP) (Plasmodium falciparum, UniProt Q7K740 21-375); experiment: SPR, recombinant CSP
T1 construct: also called recombinant CSP
T1 sequence (Q7K740 21-375 limits assumed): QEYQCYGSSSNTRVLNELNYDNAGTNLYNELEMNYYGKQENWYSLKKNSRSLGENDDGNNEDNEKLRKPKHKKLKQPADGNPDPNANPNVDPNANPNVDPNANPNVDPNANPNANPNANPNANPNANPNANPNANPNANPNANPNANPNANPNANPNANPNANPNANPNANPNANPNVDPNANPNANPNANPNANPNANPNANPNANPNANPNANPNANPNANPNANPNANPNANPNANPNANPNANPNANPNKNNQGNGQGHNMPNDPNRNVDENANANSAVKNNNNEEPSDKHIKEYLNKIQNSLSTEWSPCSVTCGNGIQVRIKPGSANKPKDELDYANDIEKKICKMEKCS
pKd: −log10 of the molar value.
Please mark Met if the recorded pKd is equal to or greater than 9, and Not met if it falls below.

The examples below pair each entry with its known result.
[
  {
    "BINDER": "AB-000327 (antibody, V domains shown) VH: QVQLVESGGGVVQPGRSLRLSCAASRFTFKNYGMHWVRQGPGKGLEWVAVIWYDGSQEYYVDSVRGRFTISRDNSKDTLYLQMNSLRAEDTAVYYCVRDGRYRTSHQTSTGFFDLWGQGTLVTVSS VL: QSMLTQPPSVSGAPGQRVTISCTGSSSNIGADYDVHWYQQLPGTAPKLLIYGNNNRPSGVPDRFSGSKSGTSASLAITGLQPEDEAEYYCQSYDSSLSGSFVFGTGTKVTVL",
    "LABEL CLASS": "Met"
  },
  {
    "BINDER": "AB-000356 LS (antibody, V domains shown) VH: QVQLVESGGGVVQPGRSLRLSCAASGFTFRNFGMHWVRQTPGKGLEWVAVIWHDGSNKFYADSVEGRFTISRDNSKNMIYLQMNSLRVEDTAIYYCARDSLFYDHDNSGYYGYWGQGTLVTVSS VL: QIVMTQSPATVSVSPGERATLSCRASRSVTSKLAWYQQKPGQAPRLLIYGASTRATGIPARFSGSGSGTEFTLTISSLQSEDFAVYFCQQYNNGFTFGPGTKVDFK",
    "LABEL CLASS": "Not met"
  }
]

Answer whether pKd of AB-000376 (antibody, V domains shown) VH: QVQLVESGGGVVQPGRSLRLSCTASGFTFSNYGMHWVRQAPGRALEWVAIIWHDGSNKYYADSVKGRFTISRDNSKNTLYLQMNNVRVEDTAVYHCAKVGGFGELYEAFDFWGQGTLVTVSS VL: DIQMTQSPSTLSASVGDRVTITCRASHSISNWLAWYQQKPGKAPRLLIYKASSLNSGVPSRFSGSASGTEFTLTISSLQPDDFATYFCQQYNAYWTFGQGTKVEIK is greater than or equal to 9.
Met
